Test system: MV4-11
Assay: CellTox Green cytotoxicity fluorescence relative to DMSO vehicle (fold of vehicle RFU); higher = more cell death (loss of membrane integrity), active = 2 or more
Conditions: 0.1 µM; 72 h
This section presents molecules with their documented CellTox Green cytotoxicity fluorescence values.

MOLECULE	SYSTEM UNDER TEST	CellTox Green cytotoxicity fluorescence
CNC(=O)c1ccc(Nc2ncc(C(F)(F)F)c(NCc3nccnc3N(C)S(C)(=O)=O)n2)cc1 [Defactinib]	MV4-11	1.01 (inactive)

Record request: CellTox Green cytotoxicity fluorescence value, item O=C(COc1ccc(Cl)cc1)NC1CCC(NC(=O)COc2ccc(Cl)cc2)CC1 (stereo not given)
1.01 (inactive)

Next entry: `C[C@H]1Oc2cc(cnc2N)-c2c(nn(C)c2C#N)CN(C)C(=O)c2ccc(F)cc21`
0.992 (inactive)

Next entry: `N#Cc1ccc(-c2c(-c3ncn[nH]3)sc(N3CCOCC3)c2C#N)c(F)c1`
0.991 (inactive)

Next entry: CCCCCCCCCCCC1=C(O)C(=O)C=C(O)C1=O [Embelin]
1 (inactive)

---

This section presents compounds with their documented CellTox Green cytotoxicity fluorescence values.
Test system: MV4-11
Test: CellTox Green cytotoxicity fluorescence relative to DMSO vehicle (fold of vehicle RFU); higher = more cell death (loss of membrane integrity), active = 2 or more
Conditions: 0.1 µM; 72 h
Answer using only a numeral; do not append any unit.

COMPOUND	CellTox Green cytotoxicity fluorescence
Nc1cccc2c1C(=O)N(C1CCC(=O)NC1=O)C2=O (configuration not stated) [Pomalidomide]	0.983
COc1nc(-c2ccc3c(c2)OCO3)n(-c2ccc(NC(=O)CSc3ccccc3)cc2)n1	1

Record request: CellTox Green cytotoxicity fluorescence value, item `CCN(CC)CCNC(=O)c1c(C)[nH]c(/C=C2\C(=O)Nc3ccc(F)cc32)c1C`
1.78

Next entry: `COc1ccc(CCNCc2ccc(OCc3ccc(Cl)nc3)c(OC)c2)cc1OC`
0.967

Next entry: `Cc1nn(C)c(COc2ccc(N3CCN(S(=O)(=O)N(C)C)CC3)cc2)c1-c1cccc2c(CCCOc3cccc4ccccc34)c(C(=O)O)n(CCN3CCOCC3)c12`
1.12

Next entry: COCC[n+]1c2c(n(Cc3cnccn3)c1C)C(=O)c1ccccc1C2=O [Sepantronium Bromide]
2.14

Next entry: `O=C1NC(=NCc2cccs2)S/C1=C\c1ccc2ncccc2c1`
0.955

Next entry: Nc1cccc2c1CN(C1CCC(=O)NC1=O)C2=O (configuration not stated) [Lenalidomide]
0.915

Next entry: `N#CC(=Cc1ccc(-c2cc(Cl)ccc2Cl)o1)C(=O)Nc1cccc2ncccc12`
1.01

Next entry: `Nc1ccccc1NC(=O)c1cnccn1`
0.99

Next entry: `COc1cc(C(=O)O)ccc1NC(=O)[C@@H]1N[C@@H](CC(C)(C)C)[C@](C#N)(c2ccc(Cl)cc2F)[C@H]1c1cccc(Cl)c1F`
0.972

Next entry: `Cn1cc(-c2ccc3c(c2)CCN3C(=O)Cc2cccc(C(F)(F)F)c2)c2c(N)ncnc21`
0.977

---

System: MV4-11
Experiment: CellTox Green cytotoxicity fluorescence relative to DMSO vehicle (fold of vehicle RFU); higher = more cell death (loss of membrane integrity), active = 2 or more
Conditions: 0.1 µM; 72 h
This section presents compounds with their documented CellTox Green cytotoxicity fluorescence values.

COMPOUND	RESULT
CN[C@@H](C)C(=O)N[C@H](C(=O)N1CCC[C@H]1C(=O)Nc1snnc1-c1ccccc1)C1CCCCC1	1 (inactive)
CN1CCN(Cc2ccc(Nc3ncc(Cl)c(Nc4ccccc4S(=O)(=O)N(C)C)n3)cc2)CC1	2.27 (active)
COc1cc(C(=O)N2CCC(N3CCN(C)CC3)CC2)ccc1Nc1ncc2c(n1)N(C)c1ccccc1C(=O)N2C	1.08 (inactive)
CCOC(=O)C1=C(N)Oc2ccc(Br)cc2C1C(C#N)C(=O)OCC (stereo unspecified)	0.948 (inactive)
CNC(=O)c1ccccc1Nc1cc(Nc2ccc(N3CCOCC3)cc2OC)ncc1C(F)(F)F	0.972 (inactive)

Please look at the following compound next.
Record request: CellTox Green cytotoxicity fluorescence value, item `CCCCNc1ncc2c(-c3ccc(CN4CCN(C)CC4)cc3)cn([C@H]3CC[C@H](O)CC3)c2n1`
2.1 (active)

---

This section presents molecules with their documented CellTox Green cytotoxicity fluorescence values.
Test system: MV4-11
Experiment: CellTox Green cytotoxicity fluorescence relative to DMSO vehicle (fold of vehicle RFU); higher = more cell death (loss of membrane integrity), active = 2 or more
Conditions: 0.1 µM; 48 h
Answer using only a numeral; do not append any unit.

# count of solved cases: 10
MOLECULE	SYSTEM UNDER TEST	NUMERIC RESULT
CCO[C@@H]1OC(=O)C[C@@H]1NC(=O)[C@@H]1CCCN1C(=O)[C@@H](NC(=O)c1ccc(N)c(Cl)c1)C(C)(C)C	MV4-11	0.989
C=CC(=O)N1CC(=Cc2ccc([N+](=O)[O-])cc2)C(=O)C(=Cc2ccc([N+](=O)[O-])cc2)C1	MV4-11	1.66
O=C1CCC(N2C(=O)c3ccccc3C2=O)C(=O)N1 (stereo unspecified) [Thalidomide]	MV4-11	0.962
Nc1cccc2c1CN(C1CCC(=O)NC1=O)C2=O (stereo unspecified) [Lenalidomide]	MV4-11	0.929
CCOc1cc(C(C)(C)C)ccc1C1=N[C@@](C)(c2ccc(Cl)cc2)[C@@](C)(c2ccc(Cl)cc2)N1C(=O)N1CCN(CCCS(C)(=O)=O)CC1	MV4-11	1.07
Cc1c(C(=O)Nc2ccc(Oc3ccnc4[nH]cc(-c5ccccc5)c34)c(F)c2)c(=O)n(-c2ccc(F)cc2)n1C	MV4-11	1.23
CC[C@H](NC(=O)[C@H](C)NC)C(=O)N1C[C@@H](O)C[C@H]1Cc1c(-c2[nH]c3cc(F)ccc3c2C[C@@H]2C[C@H](O)CN2C(=O)[C@H](CC)NC(=O)[C@H](C)NC)[nH]c2cc(F)ccc12	MV4-11	1.04
Cc1cccc(CC(=O)N2CCc3c2ccc(-c2cn(C)c4ncnc(N)c24)c3F)n1	MV4-11	1.01
CN(C)CC[C@H](CSc1ccccc1)Nc1ccc(S(=O)(=O)NC(=O)c2ccc(N3CCN(Cc4ccccc4-c4ccc(Cl)cc4)CC3)cc2)cc1[N+](=O)[O-]	MV4-11	1.59
CCCC[C@@H](C=O)NC(=O)[C@H](CC(C)C)NC(=O)OCc1ccccc1	MV4-11	1.02

Please look at the following molecule next.
Query the reported CellTox Green cytotoxicity fluorescence for MV4-11; item: `CNC(=O)c1ccccc1Nc1cc(Nc2ccc(N3CCOCC3)cc2OC)ncc1C(F)(F)F`
0.967

---

Tested on: MV4-11
Assay: CellTox Green cytotoxicity fluorescence relative to DMSO vehicle (fold of vehicle RFU); higher = more cell death (loss of membrane integrity), active = 2 or more
Conditions: 0.01 µM; 72 h
The threshold is inclusive: CellTox Green cytotoxicity fluorescence of exactly 1 counts as satisfied; values below receive not satisfied.

Kindly determine if CellTox Green cytotoxicity fluorescence recorded for `CC(=O)N1c2ccc(-c3ccc(C(=O)O)cc3)cc2[C@H](Nc2ccc(Cl)cc2)C[C@@H]1C` is above or exactly 1.
satisfied

Next entry: `O=C(NS(=O)(=O)c1ccc(Br)s1)c1ccc(Cl)cc1Cl`
not satisfied

Next entry: `CN(C)CC[C@H](CSc1ccccc1)Nc1ccc(S(=O)(=O)NC(=O)c2ccc(N3CCN(Cc4ccccc4-c4ccc(Cl)cc4)CC3)cc2)cc1[N+](=O)[O-]`
satisfied

---

This section presents compounds with their documented CellTox Green cytotoxicity fluorescence values.
Tested on: CMK
Experiment: CellTox Green cytotoxicity fluorescence relative to DMSO vehicle (fold of vehicle RFU); higher = more cell death (loss of membrane integrity), active = 2 or more
Settings: 0.01 µM; 24 h
Answer using only a numeral; do not append any unit.

QUERY SMILES	CellTox Green cytotoxicity fluorescence
CCCC[C@@H](C=O)NC(=O)[C@H](CC(C)C)NC(=O)OCc1ccccc1	1
COc1nc(OCc2cccc(-c3ccccc3)c2C)ccc1CNCCNC(C)=O	1.01
C=CCc1cccc(/C=N/NC(=O)CN2CCN(Cc3ccccc3)CC2)c1O	0.917
FC(F)(F)c1ccc(CNc2ccc(Cc3c[nH]c4ncc(Cl)cc34)cn2)cn1	1.01
CCO[C@@H]1OC(=O)C[C@@H]1NC(=O)[C@@H]1CCCN1C(=O)[C@@H](NC(=O)c1ccc(N)c(Cl)c1)C(C)(C)C	0.989
CC(C)(C)C[C@@H]1N[C@@H](C(=O)N[C@H]2CC[C@H](O)CC2)[C@H](c2cccc(Cl)c2F)[C@]12C(=O)Nc1cc(Cl)ccc12	0.996
CNC(=O)c1ccc(Nc2ncc(C(F)(F)F)c(NCc3nccnc3N(C)S(C)(=O)=O)n2)cc1	0.942
CN1CCN(CCCNc2ncc(Cl)c(-c3cc4c(C(=O)NC5CC5)cccc4s3)n2)CC1	0.99
C=CC(=O)N1CC(=Cc2ccc([N+](=O)[O-])cc2)C(=O)C(=Cc2ccc([N+](=O)[O-])cc2)C1	0.921

Please look at the following compound next.
Record request: CellTox Green cytotoxicity fluorescence value, item `CC(C)c1cc2c(N3CCN(C4=NCC(C)(C)S4)CC3)ncnc2s1`
0.943

Origin of measurements: the supplement of paper PMC7595190
